Data provenance: patent US10160716B2

Target: ER-α (Homo sapiens, UniProt P03372)
Construct: endogenous in cells
Sequence (P03372 whole entry): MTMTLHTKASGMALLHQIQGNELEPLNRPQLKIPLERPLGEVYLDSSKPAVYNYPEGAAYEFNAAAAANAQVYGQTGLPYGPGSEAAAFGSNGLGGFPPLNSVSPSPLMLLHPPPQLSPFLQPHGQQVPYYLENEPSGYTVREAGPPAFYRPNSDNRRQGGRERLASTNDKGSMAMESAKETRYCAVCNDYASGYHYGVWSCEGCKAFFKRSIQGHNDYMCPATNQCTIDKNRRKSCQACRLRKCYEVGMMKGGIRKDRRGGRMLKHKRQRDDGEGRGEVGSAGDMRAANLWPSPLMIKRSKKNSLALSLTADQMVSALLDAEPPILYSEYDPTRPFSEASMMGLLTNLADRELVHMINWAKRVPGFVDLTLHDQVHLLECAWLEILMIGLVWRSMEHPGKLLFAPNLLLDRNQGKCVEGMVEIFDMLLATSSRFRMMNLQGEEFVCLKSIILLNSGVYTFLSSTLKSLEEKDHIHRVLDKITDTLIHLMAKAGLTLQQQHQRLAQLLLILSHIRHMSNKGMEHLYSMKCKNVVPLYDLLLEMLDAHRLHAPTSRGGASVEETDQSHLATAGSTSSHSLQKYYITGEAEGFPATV
Experiment: ERE-TK-Luc reporter assay of E2-stimulated ER-α transcriptional activity in MCF-7 cells
Conditions: read-out: IC50 (concentration required for inhibition of ER-α activity by 50%)

{"MOLECULE": "Nc1nc(Cc2ccccc2)nc(Cc2ccccc2)c1-c1ccccc1", "IC50 [µM]": 12}
{"MOLECULE": "O=C(O)CCCc1ccc2ccccc2c1", "IC50 [µM]": 4}
{"MOLECULE": "CC(C)=CC1C(COC(=O)c2cc3c(cc2Cl)OCO3)C1(C)C (stereo not drawn)", "IC50 [µM]": 3}
